assay: clinical; conditions: male, human, in vivo, 16 mg
Readout kind: Vd/F (L)
I only need the number, in L, no unit after it.

Task item: Need Vd/F, item `Cc1nccn1C[C@H]1CCc2c(c3cccc4c3n2CCC4)C1=O`
Reply: 276

----------
assay: clinical; details: male, human, in vivo, iv, 16 mg
Readout kind: AUC(0-t) (ng·h/mL)
I only need the number, in ng·h/mL, no unit after it.

Task item: Need AUC(0-t), item `Cc1nccn1C[C@H]1CCc2c(c3cccc4c3n2CCC4)C1=O`
Reply: 518

----------
experiment: clinical; conditions: male, human, in vivo, iv, Steady-state volume of distribution (Vss)
Readout kind: Vd

Task item: Need Vd, item Cc1nccn1C[C@H]1CCc2c(c3cccc4c3n2CCC4)C1=O [Cilansetron]
Reply: ~56 L

----------
assay: clinical; details: male, human, in vivo, iv, 8 mg, AUC(0-inf)
Readout kind: AUC(0-inf)
Could you write the number and then its unit?

Task item: Need AUC(0-inf), item `Cc1nccn1C[C@H]1CCc2c(c3cccc4c3n2CCC4)C1=O`
Reply: 234 ng·h/mL

----------
experiment: clinical; conditions: female, human, in vivo, po, 8 mg, T½
Readout kind: half-life
Could you write the number and then its unit?

Task item: Need half-life, item `Cc1nccn1C[C@H]1CCc2c(c3cccc4c3n2CCC4)C1=O`
Reply: 1.45 h

----------
assay: clinical; conditions: female, human, in vivo, 32 mg
Readout kind: Tmax (h)
I only need the number, in h, no unit after it.

Task item: Need Tmax, item `Cc1nccn1C[C@H]1CCc2c(c3cccc4c3n2CCC4)C1=O`
Reply: 1

----------
test: clinical; conditions: male, human, in vivo, iv, T½
Readout kind: half-life (h)
I only need the number, in h, no unit after it.

Task item: Need half-life, item `Cc1nccn1C[C@H]1CCc2c(c3cccc4c3n2CCC4)C1=O`
Reply: 1.33

----------
test: Study S.241.1.103: 14C mass balance, 8 mg oral and IV; format: in vivo, human; settings: male, human, in vivo, po, Absolute Bioavailability
Readout kind: bioavailability

Task item: Need bioavailability, item `Cc1nccn1C[C@H]1CCc2c(c3cccc4c3n2CCC4)C1=O`
Reply: 49%

----------
test: clinical; details: male, human, in vivo, iv, 8 mg, Systemic plasma clearance
Readout kind: clearance

Task item: Need clearance, item Cc1nccn1C[C@H]1CCc2c(c3cccc4c3n2CCC4)C1=O [Cilansetron]
Reply: ~600 mL/min

----------
assay: clinical; settings: male, human, in vivo, po, 32 mg
Readout kind: AUC(0-inf) (ng·h/mL)
I only need the number, in ng·h/mL, no unit after it.

Task item: Need AUC(0-inf), item `Cc1nccn1C[C@H]1CCc2c(c3cccc4c3n2CCC4)C1=O`
Reply: 330

----------
experiment: clinical; settings: male, human, in vivo, 16 mg
Readout kind: Cmax (µg/mL)
I only need the number, in µg/mL, no unit after it.

Task item: Need Cmax, item `Cc1nccn1C[C@H]1CCc2c(c3cccc4c3n2CCC4)C1=O`
Reply: 0.0631

----------
assay: Study S.241.1.103: 14C mass balance, 8 mg oral and IV; format: in vivo, human; conditions: male, human, in vivo, po
Readout kind: AUC(0-inf) (ng·h/mL)
I only need the number, in ng·h/mL, no unit after it.

Task item: Need AUC(0-inf), item `Cc1nccn1C[C@H]1CCc2c(c3cccc4c3n2CCC4)C1=O`
Reply: 98.2

----------
experiment: clinical; settings: female, human, in vivo, 8 mg, Cmax
Readout kind: Cmax (ng/mL)
I only need the number, in ng/mL, no unit after it.

Task item: Need Cmax, item `Cc1nccn1C[C@H]1CCc2c(c3cccc4c3n2CCC4)C1=O`
Reply: 43.2

----------
assay: Study S.241.1.109: single and multiple dose pharmacokinetics 2 mg TID; type: in vivo, human; conditions: both sexes, human, in vivo, 2 mg
Readout kind: AUC(0-inf) (ng·h/mL)
I only need the number, in ng·h/mL, no unit after it.

Task item: Need AUC(0-inf), item `Cc1nccn1C[C@H]1CCc2c(c3cccc4c3n2CCC4)C1=O`
Reply: 22.3

----------
test: clinical; conditions: male, human, in vivo, iv, 16 mg
Readout kind: Vd (L)
I only need the number, in L, no unit after it.

Task item: Need Vd, item Cc1nccn1C[C@H]1CCc2c(c3cccc4c3n2CCC4)C1=O [Cilansetron]
Reply: 68

----------
assay: clinical; settings: male, human, in vivo, po
Readout kind: half-life

Task item: Need half-life, item Cc1nccn1C[C@H]1CCc2c(c3cccc4c3n2CCC4)C1=O [Cilansetron]
Reply: 1.2 to 1.6 h

----------
experiment: Study S.241.1.103: 14C mass balance, 8 mg oral and IV; type: in vivo, human; conditions: male, human, in vivo, iv
Readout kind: AUC(0-t) (ng·h/mL)
I only need the number, in ng·h/mL, no unit after it.

Task item: Need AUC(0-t), item Cc1nccn1C[C@H]1CCc2c(c3cccc4c3n2CCC4)C1=O [Cilansetron]
Reply: 200

----------
assay: clinical; conditions: male, human, in vivo, 8 mg, T½
Readout kind: half-life (h)
I only need the number, in h, no unit after it.

Task item: Need half-life, item `Cc1nccn1C[C@H]1CCc2c(c3cccc4c3n2CCC4)C1=O`
Reply: 1.92

----------
experiment: clinical; details: male, human, in vivo, po, 32 mg
Readout kind: Cmax (ng/mL)
I only need the number, in ng/mL, no unit after it.

Task item: Need Cmax, item Cc1nccn1C[C@H]1CCc2c(c3cccc4c3n2CCC4)C1=O [Cilansetron]
Reply: 143

----------
experiment: clinical; settings: both, human, in vivo
Readout kind: Tmax (h)
I only need the number, in h, no unit after it.

Task item: Need Tmax, item `Cc1nccn1C[C@H]1CCc2c(c3cccc4c3n2CCC4)C1=O`
Reply: 1

----------
experiment: clinical; settings: male, human, in vivo, iv, 8 mg
Readout kind: clearance (mL/min)
I only need the number, in mL/min, no unit after it.

Task item: Need clearance, item `Cc1nccn1C[C@H]1CCc2c(c3cccc4c3n2CCC4)C1=O`
Reply: 567

----------
assay: clinical; details: male, human, in vivo, iv, 8 mg
Readout kind: CL renal (mL/min)
I only need the number, in mL/min, no unit after it.

Task item: Need CL renal, item `Cc1nccn1C[C@H]1CCc2c(c3cccc4c3n2CCC4)C1=O`
Reply: 2.64

----------
experiment: clinical; settings: male, human, in vivo, po, 8 mg
Readout kind: half-life (h)
I only need the number, in h, no unit after it.

Task item: Need half-life, item `Cc1nccn1C[C@H]1CCc2c(c3cccc4c3n2CCC4)C1=O`
Reply: 1.47
